Tested on: UACC-62 melanoma
test-method-notes: NCI tumour cell line growth inhibition, 48 h
Provide the recorded TGI for the entries that follow.

Consider the worked cases shown below.
compound=CCN1CCN(c2nc3ccccc3nc2C(=O)c2ccc(OC)cc2)CC1 result="45 µM"
compound=Cc1nc2c(O)cc3c4c(=O)n(C)c(=O)n(C)c4n(Cc4ccccc4)c3c2nc1C result="34 µM"
compound="N#CC(/C(=N\\NC(=O)c1ccncc1)C(=O)Nc1ccc([N+](=O)[O-])cc1[N+](=O)[O-])c1nc(-c2ccc(Br)cc2)cs1 (configuration not stated)" result="> 100 µM"

Record TGI per entry; entries follow.
1. CCOC(=O)C1(C#N)C(c2ccccc2)CC(O)(c2ccc([N+](=O)[O-])cc2)C(C(=O)c2ccc([N+](=O)[O-])cc2)C1c1ccccc1 (configuration not stated)
2. CCN1C(=S)n2cccc2C1CC(=O)c1ccc(Cl)cc1 (configuration not stated)
3. CN(C)CCCNC(=O)c1ccc2oc3cc4ccccc4c(=O)n3c2c1
4. CN(C)C(=S)N1C(=S)N(c2ccccc2)C(=Nc2ccccc2)C1=Nc1ccccc1

> 100 µM
> 100 µM
> 50 µM
> 100 µM

* * *

System: SK-MEL-2 melanoma
test-method-notes: NCI tumour cell line growth inhibition, 48 h
parameter-measured: TGI

compound="CC(C)(Br)C(Br)CCC(=CCBr)CBr (mixture of isomers)" parameter_measured=TGI result="9.32 µM"
compound=C/C(=C/c1ccccc1)CN(C(=O)/C=C\Sc1ccccc1)C(C)(C)C parameter_measured=TGI result="> 100 µM"
compound="N#CC1(C#N)NC(c2cccnc2)C(C#N)(C#N)NC1c1cccnc1 (stereo not drawn)" parameter_measured=TGI result="> 100 µM"
compound=Cc1ccccc1N=CN(C)C parameter_measured=TGI result="> 100 µM"
compound=CCOC(=O)Cc1nc2ccccc2s1 parameter_measured=TGI result="36.5 µM"

Record TGI per entry; entries follow.
1. COC(=O)C(=O)C(C(=O)C1=NS(=O)(=O)c2cc(S(N)(=O)=O)c(Cl)cc2N1)c1nc2ccc(C(=O)c3ccccc3)cc2[nH]c1=O (stereo not drawn)
2. C=CC(CBr)CCC(Br)C(C)(C)Br (stereo not drawn)
3. C#Cc1c(C)c(/C=C/C(C)=C/C=C/C(C)=C/C(=O)OC)n(C)c1C

["> 100 µM", "> 10 µM", "> 100 µM"]

* * *

System: U251 CNS
test-method-notes: NCI tumour cell line growth inhibition, 48 h
Provide the recorded TGI for the entries that follow.

molecule="O=c1[nH]c(=O)n(C2OC(CO)C(O)C2O)c2ncc(-c3ccc(-c4ccccc4)cc3)nc12 (stereo not given)" result="> 20 µM"

Record TGI per entry; entries follow.
1. COc1ccccc1-c1cc(/C=C2\C(=O)Nc3ncc(Br)cc32)cc(Br)c1O
2. C=C[C@]1(O)CCC[C@]2(C)C(=O)CCC12C (stereo not given in full)
3. CN(C)CCCNC(=O)c1cc(NC(=O)c2cc(NS(=O)(=O)c3ccc4c(c3)C(=O)c3ccccc3C4=O)cn2C)cn1C

> 25 µM
> 100 µM
> 100 µM

Record TGI per entry; entries follow.
1. CCOC(=O)/C(C=Nc1c(C)n(C)n(-c2ccccc2)c1=O)=C(/O)c1ccccc1
2. Cc1ccc(S(=O)(=O)N2c3ccccc3[C@H]3CCc4c([nH]c5ccccc45)[C@H]32)cc1
3. CN(C)C(=S)N1C(=S)N(c2ccccc2)C(=Nc2ccccc2)C1=Nc1ccccc1
4. O=C(/C=C/c1ccc(O)c(O)c1)OC1C[C@@](O)(C(=O)O)C[C@@H](O)[C@H]1OC(=O)/C=C/c1ccc(O)c(O)c1 (stereo not given in full)
5. CCOC(=O)C(NC(=O)C(CCCCNP(=O)(OCC)OCC)NC(=O)C(C)NC(C)=O)C(C)C (stereo not given)
6. COc1cc(Br)c(CC2(C#N)c3ccccc3C3C(N2C(=O)c2ccccc2)C3(Cl)Cl)cc1OC (stereo not given)

1. > 100 µM
2. > 100 µM
3. > 100 µM
4. > 100 µM
5. > 100 µM
6. > 65.5 µM

* * *

Test system: SN12C renal
test-method-notes: NCI tumour cell line growth inhibition, 48 h
parameter-measured: TGI

Consider the worked cases shown below.
compound=C=CCCCn1ccc2ccccc21 tested_target="SN12C renal" result="> 100 µM"
compound=c1ccc(CSC2(SCc3ccccc3)CCCC2)cc1 tested_target="SN12C renal" result="> 10 µM"
compound=CN(C)C(=S)N1C(=S)N(c2ccccc2)C(=Nc2ccccc2)C1=Nc1ccccc1 tested_target="SN12C renal" result="> 100 µM"

Record TGI per entry; entries follow.
1. Cc1c(-c2ccccc2)[nH]c2ccc(Cl)cc2c1=O
2. CC(N)C(=O)OCN1C(=O)C2C3C=CC(C2C1=O)C1C2C(=O)N(COC(=O)C(C)N)C(=O)C2C31 (stereo not drawn)
3. Cc1nn2c(=O)c([N+](=O)[O-])c(/C=C/c3ccco3)nc2s1
4. COc1ccc(/C=N/n2c(=O)[nH]c3ccccc3c2=O)cc1
5. C/C1=C/C(=O)O[C@@H]2C[C@@H](CC[C@H](C)/C=C\C=C\CC1)O[C@@](O)([C@@H]1CSC(=O)N1CO)C2
6. COc1ccc(/C=N/N=C(\N)NO)c(Cl)c1O
7. CC(=O)NC(CCCCN(Cc1ccccc1)C(=O)NCCCl)C(=O)NCc1ccccc1 (stereo not drawn)

> 100 µM
55.8 µM
> 100 µM
> 100 µM
> 57.4 µM
> 100 µM
> 100 µM

Record TGI per entry; entries follow.
1. COC(=O)[C@@]1(Cc2ccccc2)[C@H]2c3cc(C(=O)N4CCCC4)n(Cc4ccc(OC)c(OC)c4)c3C[C@H]2CN1C(=O)c1ccccc1
2. CC1=CC=C2c3ccccc3C=CN2C(=O)C1
3. O=C(CSc1nnc(Cc2ccccc2)o1)Nc1cccc(Cl)c1

1. 24.8 µM
2. > 100 µM
3. > 100 µM

* * *

Provide the recorded TGI for the entries that follow.
Test system: SF-268 CNS
test-method-notes: NCI tumour cell line growth inhibition, 48 h

Consider the worked cases shown below.
molecule=Sc1ccc2ccccc2c1CNCc1ccccc1 result="30.3 µM"
molecule=O=C1CCCC2=C1CC1=C(CCCC1=O)N2c1ccccc1C(=O)O result="> 100 µM"
molecule=O=C(CCCCCCCn1cc(-c2cccnc2)nn1)Nc1ccccc1-c1ccccc1 result="> 100 µM"
molecule=O=Nc1ccc(O)c2ccccc12 result="5.87 µM"
molecule="CC1=C(C#N)C23C(=O)c4ccccc4C(O)=C2C(=O)C=CC3(O)N1 (configuration not stated)" result="26.2 µM"
molecule=Cc1cccc(NC(=S)Nc2ccc([N+](=O)[O-])cc2)n1 result="> 100 µM"

Record TGI per entry; entries follow.
1. O=C(O)C1=C(C(=O)Nc2ccccc2)C2C=CC1C2 (configuration not stated)
2. C[C@H]1CC[C@H]([C@@H](C)[C@H]2[C@@H](O)C[C@H]3[C@@H]4CC[C@H]5C[C@@H](O)CC[C@]5(C)[C@H]4CC[C@]23C)NC1
3. O=C1OC2C(O)COC2(O)C1(O)C(C[N+](=O)[O-])c1ccc(Cl)cc1 (configuration not stated)
4. C=CC(CBr)CCC(Br)C(C)(C)Br (configuration not stated)
5. C/C(=C/c1ccccc1)CN(C(=O)/C=C\Sc1ccccc1)C(C)(C)C
6. COc1cc(C2SCC(=O)N2Cc2ccccc2)cc(OC)c1OC (configuration not stated)
7. O=c1c(-c2c(-c3ccccc3)oc3ccc(Cl)cc3c2=O)c(-c2ccccc2)oc2ccc(Cl)cc12
8. CS/C(C#N)=C(\C#N)SC

> 100 µM
67.1 µM
31.3 µM
> 10 µM
> 38.1 µM
> 100 µM
> 92.3 µM
58 µM

Record TGI per entry; entries follow.
1. Cc1cccc(O)c1-c1nnc(CCCCCCCCc2nnc(-c3c(C)cccc3O)n2N)n1N
2. C=C(C)CNC(=S)N(N)c1ccc(OC)cc1
3. COC(=O)C(Cc1cnc[nH]1)NC(=O)CNC(=O)CCCn1c(=O)c2c3ccccc3n(C)c2n2nnc(-c3ccccc3)c12 (configuration not stated)
4. NCCCCCCCCn1c2c(c3ccccc3c1=O)C(=O)c1ccccc1-2
5. CC(=O)OCc1ccc2oc(=O)c(C(=O)Oc3cccc(Cl)c3)cc2c1
6. O=C(N/N=C/c1ccccc1O)C(O)(c1ccccc1)c1ccccc1
7. O=C(NCCc1ccccc1)C(c1ccccc1)(c1ccccc1)c1ccccc1

> 100 µM
> 100 µM
> 100 µM
> 100 µM
> 100 µM
> 100 µM
> 100 µM

Record TGI per entry; entries follow.
1. COc1c(C)c2c(c3c1c(=O)c1ccccc1n3C)C=CC(C)(C)O2
2. c1ccc(N=c2snc3scc(-c4ccccc4)n23)cc1
3. COc1cc2c3c(c4ccc(OC)c(OC)c4c2cc1OC)CN1CCC[C@@H]1C3

1: 91.4 µM; 2: > 100 µM; 3: 2.38 µM
